Just for reference, ChEMBL document CHEMBL1149495 is where these values come from.

Please respond with reported clearance for every item in the list.
- method.description: Total clearance in Sprague-Dawley rat at 10 mg/kg, iv
- Assay type: ADME, organism-based
- Set-up: dose 10 mg/kg, route intravenous
- test.settings: in vivo
Give the quantity in mL/min/kg, number only.

Recorded clearance of "C[C@]12CC[C@@H]3c4ccc(O)cc4C[C@@H](CCCCCCCC[C@H](CCCC(F)(F)C(F)(F)C(F)(F)C(F)(F)F)C(=O)O)[C@H]3[C@@H]1CC[C@@H]2O" , please.
0.65

What do you get for "C[C@]12CC[C@@H]3c4ccc(O)cc4C[C@@H](CCCCCCCC[C@@H](CCCC(F)(F)C(F)(F)C(F)(F)C(F)(F)F)C(=O)O)[C@H]3[C@@H]1CC[C@@H]2O" ?
1.23

What do you get for C[C@]12CC[C@@H]3c4ccc(O)cc4C[C@@H](CCCCCCCCC(CCCC(F)(F)C(F)(F)C(F)(F)C(F)(F)F)C(=O)O)[C@H]3[C@@H]1CC[C@@H]2O (stereo partly drawn) ?
0.817
